biological target: human DGKζ (Homo sapiens, UniProt Q13574); construct: TVMV protease cleavage site (C); Hexa-His (C); made in house; host or cells: Sf9 insect cells (baculovirus, Bac-to-Bac); assay: DGKζ LIPGLO assay (extruded liposome substrate), in vitro DGK inhibition; type: biochemical; conditions: liposome (LIPGLO) assay; read-out: DGKz LIPGLO IC50
Sequence (Q13574 with tags, fused parts or gaps isoform Q13574-4): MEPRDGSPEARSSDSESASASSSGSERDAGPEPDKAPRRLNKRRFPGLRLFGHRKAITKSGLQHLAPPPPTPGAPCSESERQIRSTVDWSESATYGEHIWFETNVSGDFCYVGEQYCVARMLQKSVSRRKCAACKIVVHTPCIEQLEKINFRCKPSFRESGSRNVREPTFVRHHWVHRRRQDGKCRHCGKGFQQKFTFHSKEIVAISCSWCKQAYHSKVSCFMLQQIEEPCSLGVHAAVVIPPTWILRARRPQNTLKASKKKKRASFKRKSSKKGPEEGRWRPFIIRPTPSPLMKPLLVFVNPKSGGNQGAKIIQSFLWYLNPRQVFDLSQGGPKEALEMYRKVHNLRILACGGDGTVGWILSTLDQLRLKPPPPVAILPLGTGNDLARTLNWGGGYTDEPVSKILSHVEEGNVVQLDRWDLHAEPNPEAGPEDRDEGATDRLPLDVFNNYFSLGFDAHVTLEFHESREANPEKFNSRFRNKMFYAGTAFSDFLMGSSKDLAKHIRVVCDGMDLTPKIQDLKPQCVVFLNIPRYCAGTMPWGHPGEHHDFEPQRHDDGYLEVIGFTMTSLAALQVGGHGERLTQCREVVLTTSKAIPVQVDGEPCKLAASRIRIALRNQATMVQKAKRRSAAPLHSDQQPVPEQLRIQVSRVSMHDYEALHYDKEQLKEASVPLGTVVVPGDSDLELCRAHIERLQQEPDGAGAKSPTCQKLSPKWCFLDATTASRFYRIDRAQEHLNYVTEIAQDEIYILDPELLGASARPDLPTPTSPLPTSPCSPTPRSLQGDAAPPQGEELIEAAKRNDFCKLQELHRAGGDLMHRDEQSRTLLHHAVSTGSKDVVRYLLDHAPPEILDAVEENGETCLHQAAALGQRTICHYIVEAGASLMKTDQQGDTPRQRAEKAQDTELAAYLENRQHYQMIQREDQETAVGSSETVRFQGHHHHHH
pIC50: −log10 of the molar value.
Param threshold (6) applies to pIC50; output true when value >= threshold, false when value < threshold.

molecule: CC(c1ccc(C2CC2)cc1)N1C[C@H](C)N(c2cc(=O)n(C)c3ccc(C#N)nc23)C[C@H]1C (single isomer, unassigned) [Example 1214]
label.value: true

molecule: CC[C@@H]1CN(c2cc(=O)n(C)c3ccc(C#N)nc23)[C@@H](C)CN1C(c1ccc(F)cc1)c1ncccc1F (stereo partly drawn) [Example 1105]
label.value: true

molecule: C[C@@H]1CN(c2cc(=O)n(C)c3ccc(C#N)nc23)[C@@H](C)CN1C(c1ccc(F)cc1)c1ccccc1P(C)(C)=O (stereo partly drawn)
label.value: false

molecule: C[C@@H]1CN(C(c2ccc(F)cc2)c2ccc(F)cc2)CCN1c1cc(=O)n(C)c2ccc(C#N)nc12
label.value: false

molecule: Cc1ncc(C(c2ccc(Cl)cc2)N2CCN(c3c(C#N)c(=O)n(C)c4ccc(C#N)nc34)C[C@H]2C)cn1 (stereo partly drawn) [Example 314]
label.value: false

Could you tell me if the measured pIC50 of C[C@@H]1CN(c2cc(=O)n(C)c3ccc(C#N)nc23)[C@@H](C)CN1C(c1ccc(OC(F)(F)F)cc1)c1cccc(F)n1 (single isomer, unassigned) [Example 368] reaches 6 or more? false

State whether the measured pIC50 reaches 6, counting equality as reaching it, for CC[C@H]1CN(C(c2ccc(C)cc2)c2ccc(Cl)cc2)[C@H](C)CN1c1cc(=O)n(C)c2ccc(C#N)nc12 (single isomer, unassigned) [Example 1121] false

Item C[C@@H]1CN(c2cc(=O)n(C)c3ccc(C#N)nc23)[C@@H](C)CN1C(c1ccc(F)cc1)C(F)(F)CO (single isomer, unassigned) [Example 1311] with pIC50 of 6 or above? false

Does pIC50 meet or surpass 6 for C[C@@H]1CN(c2c(F)c(=O)n(C)c3ccc(C#N)nc23)[C@@H](C)CN1C(c1ccc(F)cc1)c1ccc(C(F)(F)F)cc1 (stereo partly drawn) [Example 326] ? false

Item CC[C@@H]1CN(c2cc(=O)n(C)c3ccc(C#N)nc23)[C@@H](C)CN1C(c1ccc(F)cc1)c1ccc(Cl)cc1 (stereo partly drawn) [Example 1101] with pIC50 of 6 or above? true

Check this molecule for pIC50 at or above 6: CC[C@@H]1CN(c2cc(=O)n(C)c3ccc(C#N)nc23)[C@@H](C)CN1C(c1ccc(F)cc1)c1nc(C2CC2)cs1 (single isomer, unassigned) [Example 1339] true

Check this molecule for pIC50 at or above 6: CC[C@H]1CN(C(C)c2ccc(OC(F)(F)F)cc2)[C@H](CC)CN1c1cc(=O)n(C)c2ccc(C#N)nc12 (single isomer, unassigned) [Example 1054] true

Could you tell me if the measured pIC50 of `C[C@@H]1CN(c2c(Cl)c(=O)n(C)c3ccc(C#N)nc23)[C@@H](C)CN1C(c1ccc(F)cc1)c1ccc(F)cc1` reaches 6 or more? false

Quick check: does Cc1ccc(C(c2ccc(Cl)cc2)N2C[C@H](C)N(c3cc(=O)n(C)c4ccc(C#N)nc34)C[C@H]2C)nc1 (single isomer, unassigned) [Example 363] have pIC50 greater than or equal to 6? true

###

biological target: human DGKζ (Homo sapiens, UniProt Q13574); construct: TVMV protease cleavage site (C); Hexa-His (C); made in house; host or cells: Sf9 insect cells (baculovirus, Bac-to-Bac); assay: DGKζ LIPGLO assay (extruded liposome substrate), in vitro DGK inhibition; type: biochemical; conditions: DGKζ liposome (LIPGLO) assay; read-out: DGKz LIPGLO IC50
Threshold-based label: IC50 under 1 µM gives yes, IC50 not under 1 µM gives no.

Below, 5 compounds whose answers are already recorded.
compound: CC1CN(C(c2ccc(F)cc2)c2nc(C(C)(C)C)no2)C(C)CN1c1c(C#N)c(=O)n(C)c2ccc(C#N)nc12 (single isomer, unassigned) [Example 862]
label.value: yes
--
compound: C[C@@H]1CN(c2c(C#N)c(=O)n(C)c3ccc(C#N)nc23)CCN1Cc1ccc(C(C)(C)C)cc1
label.value: no
--
compound: C[C@@H]1CN(c2c(C#N)c(=O)n(C)c3ccc(C#N)nc23)CCN1Cc1cccc(C(F)(F)F)n1
label.value: yes
--
compound: C[C@@H]1CN(c2cc(=O)n(C)c3ccc(C#N)nc23)[C@@H](C)CN1C(c1ccc(F)cc1)c1cnc(C2CC2)s1 (single isomer, unassigned) [Example 728]
label.value: yes
--
compound: C[C@@H]1CN(c2c(C#N)c(=O)n(C)c3ccc(C#N)nc23)CCN1Cc1cccc(F)c1
label.value: no

As a next step, examine the compound that follows.
Is 1 µM strictly greater than the compound's reported IC50? compound: Cc1ccc(C(c2cccc(Cl)c2)N2CCN(c3c(C#N)c(=O)n(C)c4ccc(C#N)nc34)C[C@H]2C)nc1 (single isomer, unassigned) [Example 929] no

###

target: human DGKα (Homo sapiens, UniProt P23743); construct: TVMV protease cleavage site (C); Hexa-His (C); made in house; host or cells: Sf9 insect cells (baculovirus, Bac-to-Bac); test: DGKα LIPGLO assay (extruded liposome substrate), in vitro DGK inhibition; assay type: biochemical; conditions: liposome (LIPGLO) assay; read-out: DGKa LIPGLO IC50
Sequence (P23743 with tags, fused parts or gaps): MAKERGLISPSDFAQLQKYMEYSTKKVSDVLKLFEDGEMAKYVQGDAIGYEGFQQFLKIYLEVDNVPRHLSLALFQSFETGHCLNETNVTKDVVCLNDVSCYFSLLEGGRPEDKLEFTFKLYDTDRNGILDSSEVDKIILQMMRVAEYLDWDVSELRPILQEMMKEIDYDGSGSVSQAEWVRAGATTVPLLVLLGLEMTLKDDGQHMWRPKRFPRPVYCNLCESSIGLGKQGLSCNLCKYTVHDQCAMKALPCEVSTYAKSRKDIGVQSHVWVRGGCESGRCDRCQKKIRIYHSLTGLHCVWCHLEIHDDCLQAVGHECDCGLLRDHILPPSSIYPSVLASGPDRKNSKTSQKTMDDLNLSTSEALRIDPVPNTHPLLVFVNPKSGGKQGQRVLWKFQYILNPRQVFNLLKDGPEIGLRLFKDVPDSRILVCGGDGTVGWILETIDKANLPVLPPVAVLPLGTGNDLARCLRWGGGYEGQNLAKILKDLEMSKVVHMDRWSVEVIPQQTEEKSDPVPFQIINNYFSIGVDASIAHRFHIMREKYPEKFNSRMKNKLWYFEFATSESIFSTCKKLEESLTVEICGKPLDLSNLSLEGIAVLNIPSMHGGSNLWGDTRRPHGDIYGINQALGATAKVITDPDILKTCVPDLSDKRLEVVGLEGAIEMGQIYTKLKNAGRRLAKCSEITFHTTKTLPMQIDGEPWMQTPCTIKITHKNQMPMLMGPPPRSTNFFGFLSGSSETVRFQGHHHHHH
endpoint.label: pIC50
# reply with the number alone; pIC50 is -log10 of concentration in mol/L

Known pIC50 results, listed for orientation:
compound: C[C@@H]1CN(c2cc(=O)n(C)c3ccc(C#N)nc23)[C@@H](C)CN1C(c1ccc(F)cc1)c1ccccn1 (single isomer, unassigned) [Example 198]
study.system: human DGKα (Homo sapiens, UniProt P23743)
endpoint.label: pIC50
readout.value: 6.62
//
compound: CCC(c1ccc(OC(C)C)cc1)N1C[C@H](C)N(c2cc(=O)n(C)c3ccc(C#N)nc23)C[C@H]1C (single isomer, unassigned) [Example 1449]
study.system: human DGKα (Homo sapiens, UniProt P23743)
endpoint.label: pIC50
readout.value: 6.21

# evaluate next
What pIC50 value was documented for this compound, Cn1c(=O)cc(N2CCN(C(c3ccc(F)cc3)c3ccc(F)cc3)C(C(C)(C)F)C2)c2nc(C#N)ccc21 (single isomer, unassigned) [Example 81] ? 4.60

###

target: human DGKζ (Homo sapiens, UniProt Q13574); construct: TVMV protease cleavage site (C); Hexa-His (C); made in house; host or cells: Sf9 insect cells (baculovirus, Bac-to-Bac); test: DGKζ LIPGLO assay (extruded liposome substrate), in vitro DGK inhibition; format: biochemical; details: liposome (LIPGLO) assay; read-out: DGKz LIPGLO IC50
Cut-off 0.2 µM on IC50: below means t, at or above means f.

Use these answered entries as a reference point.
compound: CC(c1ccc(F)cc1)N1C[C@H](C)N(c2cc(=O)n(C)c3ccc(C#N)nc23)C[C@H]1C (single isomer, unassigned) [Example 308]
study.system: human DGKζ (Homo sapiens, UniProt Q13574)
label.value: t
//
compound: CC[C@H]1CN(C(c2ccc(Cl)cc2)c2ccc(Cl)cc2)[C@H](C)CN1c1cc(=O)n(C)c2ccc(C#N)nc12 [Example 1120]
study.system: human DGKζ (Homo sapiens, UniProt Q13574)
label.value: t
//
compound: CC[C@H]1CN(c2cc(=O)n(C)c3ccc(C#N)nc23)CCN1C(c1ccc(F)cc1)c1ccc(F)cc1 [Example 128]
study.system: human DGKζ (Homo sapiens, UniProt Q13574)
label.value: f
//
compound: CC[C@H]1CN(C(c2ccc(F)cc2)c2ccc(Cl)cc2)[C@H](C)CN1c1cc(=O)n(C)c2ccc(C#N)nc12 (stereo partly drawn) [Example 1128]
study.system: human DGKζ (Homo sapiens, UniProt Q13574)
label.value: f

Check if IC50 falls below 0.2 µM for CCOc1ncccc1C(c1ccc(F)cc1)N1C[C@H](C)N(c2cc(=O)n(C)c3ccc(C#N)nc23)C[C@H]1C (single isomer, unassigned) [Example 206] . f

###

biological target: human DGKζ (Homo sapiens, UniProt Q13574); construct: TVMV protease cleavage site (C); Hexa-His (C); made in house; host or cells: Sf9 insect cells (baculovirus, Bac-to-Bac); assay: DGKζ LIPGLO assay (extruded liposome substrate), in vitro DGK inhibition; assay type: biochemical; settings: DGKζ liposome (LIPGLO) assay; read-out: DGKz LIPGLO IC50
endpoint.label: pIC50
Keep in mind that pIC50 stands for -log10 of concentration in molar terms.

compound: C[C@@H]1CN(c2c(C#N)c(=O)n(C)c3ccc(C#N)nc23)[C@@H](C)CN1C(c1ccc(Cl)cc1)c1ccc(Cl)cc1
readout.value: 5.77
//
compound: C[C@@H]1CN(c2c(C#N)c(=O)n(C)c3ccc(C#N)nc23)[C@@H](C)CN1C(c1ccc(F)cc1)c1ccccn1 (single isomer, unassigned) [Example 842]
readout.value: 5.48
//
compound: Cc1ccc(C)c(C(C)N2CCN(c3c(C#N)c(=O)n(C)c4ccc(C#N)nc34)C[C@H]2C)c1 (single isomer, unassigned) [Example 976]
readout.value: 5.19
//
compound: Cc1ccc(CN2CCN(c3c(C#N)c(=O)n(C)c4ccc(C#N)nc34)C[C@H]2C)cc1F
readout.value: 5.33

Lab request: please report pIC50 under test system human DGKζ (Homo sapiens, UniProt Q13574) for C[C@@H]1CN(c2c(C#N)c(=O)n(C)c3ccc(C#N)nc23)[C@@H](C)CN1C(c1ccc(Cl)cc1)c1ccc(F)cn1 (single isomer, unassigned) [Example 830] 5.02
